// provenance: paper PMC7913765

molecular target: PARP-1 full-length (human, UniProt P09874 2-1014); assay: SPR; EB-47 (100 mM [sic]); SPR (Biacore 8K): 20 mM HEPES, 150 mM NaCl, 1 mM TCEP, 0.05% Tween-20, 1% (v/v) (component not given), pH not stated, 25 C; PARP-1 0.078-20 nM; n = 6; conditions: protein: recombinant; tags: N-terminal 6His-6Lys tag, TEV site; label: biotin (internal dT, streptavidin chip); dumbbell of two hairpins with T7 loops, nick between the 5' and 3' ends; stems 13 and 12 bp
Sequence (P09874 2-1014): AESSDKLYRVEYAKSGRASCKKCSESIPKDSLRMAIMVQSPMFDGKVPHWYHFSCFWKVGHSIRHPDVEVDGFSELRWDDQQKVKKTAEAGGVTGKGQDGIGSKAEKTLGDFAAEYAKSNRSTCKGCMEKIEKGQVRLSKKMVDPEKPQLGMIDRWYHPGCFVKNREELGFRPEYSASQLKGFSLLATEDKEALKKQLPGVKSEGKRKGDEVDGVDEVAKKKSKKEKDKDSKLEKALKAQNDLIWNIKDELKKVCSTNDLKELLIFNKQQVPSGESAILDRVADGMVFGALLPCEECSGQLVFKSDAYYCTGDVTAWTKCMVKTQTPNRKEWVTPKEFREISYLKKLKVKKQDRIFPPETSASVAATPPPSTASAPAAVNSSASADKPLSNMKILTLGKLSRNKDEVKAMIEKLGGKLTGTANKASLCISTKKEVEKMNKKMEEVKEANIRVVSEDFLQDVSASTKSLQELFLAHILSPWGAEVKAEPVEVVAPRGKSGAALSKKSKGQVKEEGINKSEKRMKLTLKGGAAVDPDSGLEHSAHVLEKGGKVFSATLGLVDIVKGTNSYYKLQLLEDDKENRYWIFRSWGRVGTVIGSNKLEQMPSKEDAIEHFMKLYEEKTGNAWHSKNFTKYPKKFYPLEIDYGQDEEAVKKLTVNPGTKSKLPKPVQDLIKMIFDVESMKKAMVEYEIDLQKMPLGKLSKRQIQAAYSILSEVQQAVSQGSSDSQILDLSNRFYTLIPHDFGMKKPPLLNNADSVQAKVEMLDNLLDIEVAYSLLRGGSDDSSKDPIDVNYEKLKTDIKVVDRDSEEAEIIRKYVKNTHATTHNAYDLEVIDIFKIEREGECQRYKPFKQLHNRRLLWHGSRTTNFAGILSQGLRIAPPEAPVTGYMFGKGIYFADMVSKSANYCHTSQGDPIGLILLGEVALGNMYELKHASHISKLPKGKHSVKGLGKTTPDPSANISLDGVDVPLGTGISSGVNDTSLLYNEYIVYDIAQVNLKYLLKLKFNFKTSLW
assay_metric: Kd (nM)
Return type: number; implicit unit nM.

Problem: May I ask what Kd has been recorded for biotinylated hairpin DNA (dumbbell single-strand break model) (structured_DNA, biotin-dT at position 17 (written as T; between S1 and S2)) DNA: GACAACCCGGCGCTTTTTTTGCGCCGGGTTGTCTGGCCCAGTTCGTTTTTTTCGAACTGGGCCA ?
Solution: 0.13
